Attribution: ChEMBL document CHEMBL2062402

Give measured IC50 for each item. Keep answers brief.
# TARGET_ENTITY: Histone deacetylase 3/Nuclear receptor corepressor 2 (HDAC3/NCoR2) (Homo sapiens, UniProt O15379)
# Sequence (O15379 whole entry): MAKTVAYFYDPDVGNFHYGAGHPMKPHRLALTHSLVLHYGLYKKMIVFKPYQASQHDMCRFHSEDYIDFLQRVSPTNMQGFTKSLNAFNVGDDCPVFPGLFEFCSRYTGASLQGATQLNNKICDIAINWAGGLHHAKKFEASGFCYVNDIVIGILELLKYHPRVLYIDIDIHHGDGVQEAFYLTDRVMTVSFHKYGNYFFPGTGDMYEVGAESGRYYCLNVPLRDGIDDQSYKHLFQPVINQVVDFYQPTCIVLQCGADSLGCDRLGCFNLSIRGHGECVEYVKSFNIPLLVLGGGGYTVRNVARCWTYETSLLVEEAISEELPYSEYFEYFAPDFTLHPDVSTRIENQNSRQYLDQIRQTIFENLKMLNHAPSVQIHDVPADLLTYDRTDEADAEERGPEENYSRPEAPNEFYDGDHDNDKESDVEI
# Sequence (Q9Y618 whole entry, further chain): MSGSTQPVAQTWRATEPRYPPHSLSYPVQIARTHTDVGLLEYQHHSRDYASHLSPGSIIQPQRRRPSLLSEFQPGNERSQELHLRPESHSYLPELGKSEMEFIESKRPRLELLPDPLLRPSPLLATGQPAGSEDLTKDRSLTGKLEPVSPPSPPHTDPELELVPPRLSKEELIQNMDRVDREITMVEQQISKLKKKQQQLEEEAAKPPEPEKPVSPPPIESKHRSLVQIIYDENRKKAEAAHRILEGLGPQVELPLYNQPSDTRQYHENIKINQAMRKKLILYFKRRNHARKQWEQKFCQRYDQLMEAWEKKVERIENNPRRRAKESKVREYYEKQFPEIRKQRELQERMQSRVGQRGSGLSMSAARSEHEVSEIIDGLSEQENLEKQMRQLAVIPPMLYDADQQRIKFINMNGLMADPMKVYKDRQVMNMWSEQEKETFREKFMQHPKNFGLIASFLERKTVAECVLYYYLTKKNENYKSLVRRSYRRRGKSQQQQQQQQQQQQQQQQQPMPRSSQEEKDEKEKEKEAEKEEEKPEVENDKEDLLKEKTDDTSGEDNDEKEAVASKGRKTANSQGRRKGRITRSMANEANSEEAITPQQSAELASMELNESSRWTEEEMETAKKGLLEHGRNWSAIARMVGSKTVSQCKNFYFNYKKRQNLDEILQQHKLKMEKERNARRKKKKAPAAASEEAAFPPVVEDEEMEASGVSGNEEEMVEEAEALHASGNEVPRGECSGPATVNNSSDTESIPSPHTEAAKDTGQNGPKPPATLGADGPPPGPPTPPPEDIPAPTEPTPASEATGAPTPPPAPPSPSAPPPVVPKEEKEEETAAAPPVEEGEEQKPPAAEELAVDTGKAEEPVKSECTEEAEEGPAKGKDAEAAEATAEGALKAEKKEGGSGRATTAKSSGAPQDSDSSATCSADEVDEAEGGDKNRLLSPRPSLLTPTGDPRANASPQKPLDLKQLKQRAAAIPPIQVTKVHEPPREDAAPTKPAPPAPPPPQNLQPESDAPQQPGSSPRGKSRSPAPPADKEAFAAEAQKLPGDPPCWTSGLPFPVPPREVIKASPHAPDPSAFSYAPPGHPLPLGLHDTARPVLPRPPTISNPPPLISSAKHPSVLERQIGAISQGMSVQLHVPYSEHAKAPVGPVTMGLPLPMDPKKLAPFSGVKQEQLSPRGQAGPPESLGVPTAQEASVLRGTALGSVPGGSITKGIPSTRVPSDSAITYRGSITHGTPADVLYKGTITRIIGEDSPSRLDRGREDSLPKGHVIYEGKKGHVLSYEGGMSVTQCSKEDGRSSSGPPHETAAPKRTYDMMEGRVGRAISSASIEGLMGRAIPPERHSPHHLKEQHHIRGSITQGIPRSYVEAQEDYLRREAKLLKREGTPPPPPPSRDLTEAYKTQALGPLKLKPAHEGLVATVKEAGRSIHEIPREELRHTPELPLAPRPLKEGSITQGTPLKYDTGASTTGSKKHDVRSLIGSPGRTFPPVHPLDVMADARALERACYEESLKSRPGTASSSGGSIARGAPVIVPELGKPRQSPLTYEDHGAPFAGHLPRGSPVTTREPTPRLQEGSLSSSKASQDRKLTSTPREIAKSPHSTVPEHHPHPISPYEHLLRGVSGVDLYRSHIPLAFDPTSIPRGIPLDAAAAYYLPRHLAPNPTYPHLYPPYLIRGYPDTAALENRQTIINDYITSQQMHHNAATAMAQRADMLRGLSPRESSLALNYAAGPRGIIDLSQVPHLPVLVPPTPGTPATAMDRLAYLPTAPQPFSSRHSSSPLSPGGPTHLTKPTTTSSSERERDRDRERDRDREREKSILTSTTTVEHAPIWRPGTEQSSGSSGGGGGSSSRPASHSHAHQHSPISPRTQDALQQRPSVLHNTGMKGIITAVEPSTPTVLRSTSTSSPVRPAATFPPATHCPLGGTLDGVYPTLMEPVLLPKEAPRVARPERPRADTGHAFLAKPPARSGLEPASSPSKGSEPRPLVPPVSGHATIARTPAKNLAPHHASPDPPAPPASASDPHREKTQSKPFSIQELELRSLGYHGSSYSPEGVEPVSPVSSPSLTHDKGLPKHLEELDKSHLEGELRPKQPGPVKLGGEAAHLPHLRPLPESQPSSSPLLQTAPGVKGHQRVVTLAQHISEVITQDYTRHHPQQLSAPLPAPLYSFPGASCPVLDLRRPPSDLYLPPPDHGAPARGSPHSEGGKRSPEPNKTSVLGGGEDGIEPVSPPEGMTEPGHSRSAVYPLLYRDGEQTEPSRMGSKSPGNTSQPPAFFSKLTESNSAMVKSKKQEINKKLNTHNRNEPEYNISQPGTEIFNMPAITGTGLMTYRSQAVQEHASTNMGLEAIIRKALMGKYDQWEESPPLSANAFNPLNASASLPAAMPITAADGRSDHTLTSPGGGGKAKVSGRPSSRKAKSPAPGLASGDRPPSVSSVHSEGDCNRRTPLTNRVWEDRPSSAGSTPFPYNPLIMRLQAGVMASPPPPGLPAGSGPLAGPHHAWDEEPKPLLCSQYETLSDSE
# EXPERIMENT_NOTES: Inhibition of recombinant HDAC3/NCoR2 using Ac-Lys(Ac)-AMC as substrate after 30 mins by fluorescence analysis
Where a SMILES comes first, the peptide text is derived from it. [ ]: non-standard residue; d: D form. β3hL = CC(C)C[C@H](N)CC(=O)O; Nva = CCC[C@H](N)C(=O)O
Give bare numbers, in nM.

CCC[C@@H]1NC(=O)[C@H](C)NC(=O)C[C@H](CC(C)C)NC(=O)[C@H](Cc2cn(CN(C)C)c3ccccc23)NC1=O: 800

For the compound CCC[C@@H]1NC(=O)[C@H](C)NC(=O)C[C@H](CC(C)C)NC(=O)[C@H](Cc2c[nH]c3ccccc23)NC1=O (cyclo(A[Nva]W[β3hL])) , what IC50 is on record?
1400

---

# EXPERIMENT_NOTES: Growth inhibition of human HEK293 cells at 100 uM after 72 hrs by XTT assay
# Assay type: cell-based
# APPLIED_CONDITIONS: read-out: GI
Where a SMILES comes first, the peptide text is derived from it. [ ]: non-standard residue; d: D form. β3hL = CC(C)C[C@H](N)CC(=O)O; Nva = CCC[C@H](N)C(=O)O
ENDPOINT_LABEL: inhibition at 72 h, 100 µM (%)
Give bare numbers, in %.

For the compound CCC[C@@H]1NC(=O)[C@H](C)NC(=O)C[C@H](CC(C)C)NC(=O)[C@H](Cc2c[nH]c3ccccc23)NC1=O (cyclo(A[Nva]W[β3hL])) , what inhibition at 72 h, 100 µM is on record?
33

---

# TARGET_ENTITY: Histone deacetylase 2 (Homo sapiens)
# Sequence (Q92769 whole entry): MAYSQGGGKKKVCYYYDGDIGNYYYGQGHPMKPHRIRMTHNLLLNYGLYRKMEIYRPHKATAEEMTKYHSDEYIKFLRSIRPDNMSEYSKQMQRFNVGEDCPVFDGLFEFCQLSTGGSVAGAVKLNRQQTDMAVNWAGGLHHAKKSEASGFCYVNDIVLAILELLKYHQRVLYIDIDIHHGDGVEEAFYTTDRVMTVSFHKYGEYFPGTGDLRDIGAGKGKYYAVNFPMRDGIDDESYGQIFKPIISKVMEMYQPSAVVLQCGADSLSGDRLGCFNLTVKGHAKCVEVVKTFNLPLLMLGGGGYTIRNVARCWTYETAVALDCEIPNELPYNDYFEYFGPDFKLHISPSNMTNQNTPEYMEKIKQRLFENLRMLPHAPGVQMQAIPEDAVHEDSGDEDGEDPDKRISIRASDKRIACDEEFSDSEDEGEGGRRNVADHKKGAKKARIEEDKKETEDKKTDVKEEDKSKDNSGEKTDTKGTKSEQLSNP
ENDPOINT_LABEL: Ki (nM)
Numbers only, in nM.

Record lookup: for Histone deacetylase 2 (Homo sapiens), what Ki belongs to `CCC[C@@H]1NC(=O)[C@H](C)NC(=O)C[C@H](CC(C)C)NC(=O)[C@H](Cc2cn(CN(C)C)c3ccccc23)NC1=O` ?
33

---

# TARGET_ENTITY: Histone deacetylase 3/Nuclear receptor corepressor 2 (HDAC3/NCoR2) (Homo sapiens, UniProt O15379)
# EXPERIMENT_NOTES: Competitive inhibition of HDAC3/NCoR2 using Ac-Lys(Ac)-AMC as substrate by Lineweaver-Burk plot analysis
ENDPOINT_LABEL: Ki
Dear colleague, please send the value followed by its unit.

For the molecule `CCC[C@@H]1NC(=O)[C@H](C)NC(=O)C[C@H](CC(C)C)NC(=O)[C@H](Cc2cn(CN(C)C)c3ccccc23)NC1=O` , what Ki is on record?
37 nM
